Recorded growth for the following compounds
# System: MCF7 breast
# Protocol text: NCI-60 one-dose screen, 48 h (100 = growth as untreated, 0 = no growth, -100 = all killed)
# Test parameters: 10 µM unless noted
The panel holds about 83,000 compounds, 20% with a hit somewhere; the sample as a whole holds those more often.

Compound	Result units	growth
COc1ccc(NC(=O)c2sc3nc(C)c(C(=O)c4ccccc4)cc3c2N)cc1	%	88.8
C=CC(=O)Nc1ccc2ncnc(Nc3cccc(NS(=O)(=O)CCC)c3Cl)c2c1	%	56.2
Cc1nc2sc(C(=O)Nc3ccccc3)c(N)c2cc1C(O)c1ccccc1 (stereo not given)	%	17
Cc1ccc2c(c1)CC(O)CC1C(=O)N(CCO)CC(=O)N21 (stereo not given)	%	96.8
O=c1n(C2OC(CO)C(O)C2O)ccc2nccn12 (stereo not given)	%	94.1
COc1ccc(Cn2cc3c(c2)-c2oncc2CC3)cc1	%	35.4
COc1cc(/C=C/C(=O)c2ccc(-n3cc(CN4CCN(c5cc6c(cc5F)c(=O)c(C(=O)O)cn6C5CC5)CC4)nn3)cc2)cc(OC)c1OC	%	61.4
Nc1ccc(N)c2c1C(=O)c1cccc([N+](=O)[O-])c1C2=O	%	16.5
COc1cc(NC(=O)c2cncnc2Nc2ccc3c(ccn3Cc3cccc(F)c3)c2)cc(OC)c1	%	28.2
Nc1nc(Nc2ccc([N+](=O)[O-])cc2O)nc(C(Cl)(Cl)Cl)n1	%	59.5

###

Each entry below carries its recorded growth.
# System: SK-MEL-2 melanoma
# Protocol text: NCI-60 one-dose screen, 48 h (100 = growth as untreated, 0 = no growth, -100 = all killed)
# Test parameters: 10 µM unless noted
The panel holds about 83,000 compounds, 20% with a hit somewhere; the sample as a whole holds those more often.

Molecule	growth [%]
Fc1ccc(/C=C/c2cc(/C=C/c3ccc(F)cc3)n(-c3cc(F)cc(F)c3)n2)cc1	90.8
CN(C)CCOc1nc2c3cc([N+](=O)[O-])ccc3nn2c2ccccc12	91.6
COC(=O)c1nc(-c2ccccc2)oc1S(=O)(=O)NCC(c1ccc(Cl)cc1)N1CCCCC1 (stereo not given)	93.8
Cc1nc2ccccc2c(/C=C/c2ccc(Cl)cc2)c1C(=O)/C=C/c1ccccc1	-14.1
CCOC(=O)c1cc(C(=O)c2cc(OC)cc(OC)c2)n2ncccc12	19.3
CCOC(=O)CC1CSC(N/N=C(/C)c2cccc(C(F)(F)F)c2)=N1 (stereo not given)	123
Clc1ccc(C2=Nn3c(nnc3-c3cc(Cl)cc(Cl)c3Cl)SC2)cc1	80.3
c1ccc(-c2cn3nc(-c4c[nH]c5ccccc45)sc3n2)cc1	94.4
Cc1ccc2nc(/C=C/c3ccc(N(C)C)cc3)cc(C)c2c1	34.8
COc1cccc(/C=C/C(=O)/C=C(/C=C/c2cccc(OC)c2OC)OB(F)F)c1OC	110
O=C1NCCN1/N=C/c1c(Cl)n(Cc2ccc(Cl)cc2)c2ccccc12	91.7
CC1(C)CC[C@]2(CO)CC[C@]3(C)[C@H](CC[C@@H]4[C@@]5(C)CC[C@H](O)C(C)(C)[C@@H]5CC[C@]43C)[C@H]2[C@H]1O	104
CC(C)(C)n1cc(-c2ccnc(NCCNS(=O)(=O)c3ccc(Br)cc3)c2)c(-c2cccc(O)c2)n1	30.3
Cn1ccnc1C(=O)/C=C/c1ccc(CC(=O)Nc2cc(F)c(F)c(F)c2)cc1	99.6
COc1ccc(/C=N\NC(=O)c2ccc3nc(-c4ccc(Cl)cc4)[nH]c3c2)cc1	64.1
CO[C@H]1CC(c2ccc[nH]2)=N[C@]12O[C@@H](C)C[C@@H]1CCCCCCCc3ccc([nH]3)[C@H]12	-16.2
COC(CCP(=O)(c1ccccc1)c1ccccc1)(C(=O)c1ccccc1)c1ccccc1 (stereo not given)	34.7
CCn1c2ccccc2c2cc(C(O)c3cccc4ncccc34)ccc21 (stereo not given)	51.5
O=c1c2cccc3c(N4CCOCC4)ccc(c32)c2nc3ccccc3n12	108
CCCCCC(C)(O)C(C(=O)O)c1ccccc1 (stereo not given)	108

###

# System: 786-0 renal
# Protocol text: NCI-60 one-dose screen, 48 h (100 = growth as untreated, 0 = no growth, -100 = all killed)
# Test parameters: 10 µM unless noted
About 83,000 compounds went through this panel and 20% of them were active in at least one assay; those are over-represented in the sample as a whole.

Molecule	Result units	growth
Cc1c(Cl)cccc1NC(=O)c1sc2nc3c(cc2c1N)CCCC3	%	29.8
N#Cc1nn(-c2ccccn2)c(N)c1C#N	%	98
O=C(CSc1nnc(-c2cc(-c3ccc(Cl)cc3)nc3ccccc23)n1-c1ccccc1)Nc1ccc(Cl)cc1	%	96.8
CC/C(=C(/c1ccc(Cl)cc1)c1ccc(OCCN2CCCCCC2)cc1)c1ccccc1	%	85.2
CN(C)CCOc1ccc(/C(=C(/CCCCCCCCCC[P+](c2ccccc2)(c2ccccc2)c2ccccc2)c2ccccc2)c2ccccc2)cc1	%	-76.6
COc1ccc(/C=N\NC(=O)c2ccc3nc(-c4ccc(Cl)cc4)[nH]c3c2)cc1	%	3.15
O=c1n(C2OC(CO)C(O)C2O)ccc2nccn12 (stereo not given)	%	103
COc1ccc(NC(=O)c2ccc(NC3=C(c4ccc(Cl)cc4)C(=O)NC3=O)cc2)cc1	%	89.1
Clc1ccc2c(NCCCn3cnc4c(N5CCCC5)nc(Cl)nc43)ccnc2c1	%	96.4
Nc1c(C(=O)c2ccc(Cl)cc2)sc(Nc2ccccc2)c1-c1nc2ccccc2s1	%	8.1

###

# Test system: HCT-15 colon
# Protocol text: NCI-60 one-dose screen, 48 h (100 = growth as untreated, 0 = no growth, -100 = all killed)
# Test parameters: 10 µM unless noted
About 83,000 compounds went through this panel and 20% of them were active in at least one assay; those are over-represented in the sample as a whole.
Measurement kind: growth (%)

CCCCC1=C(Br)C(=O)c2ncccc2C1=O 100
COc1cc(NC(=O)c2cncnc2Nc2ccc3c(ccn3Cc3cccc(F)c3)c2)cc(OC)c1 33.7
CCOC(=O)c1c(C)nc2c(c1N)C(=O)C(=O)N2CCc1ccc(OC)c(OC)c1 33.3
Cc1cc(C)n(C(=O)CSc2nc3sc4c(c3c(=O)n2-c2ccccc2)CCCCC4)n1 103
O=C(O)/C=C/c1cn(-c2ccccc2)nc1-c1ccc(F)cc1 101

###

# Tested on: CCRF-CEM leukemia
# Protocol text: NCI-60 one-dose screen, 48 h
# Test parameters: 10 µM unless noted
About 83,000 compounds went through this panel and 20% of them were active in at least one assay; those are over-represented in the sample as a whole. Activity calls are given as the source filed them. Rule for the calls: active = growth percent below 10; inactive = the rest.
Outcome codes: True (active), False (inactive)

Compound	Answer label
O=C(Nc1ncc(Cc2ccc(Cl)cc2)s1)C1=NCCCCN1	False
CNC(=O)c1cc(Oc2ccc3nc(NC(=O)NC(C)C)sc3c2)ccn1	False
C=C(c1ccc(C(=O)O)c(F)c1)c1cc2c(cc1C)C(C)(C)C=CC2(C)C	False
O=C1C(Nc2ccc(Br)cc2)=C(I)C(=O)c2ncccc21	True
COc1ccc(C(c2cc(OC)c(OC)c(OC)c2)n2cncn2)cc1O (configuration not stated)	True
CCCCCCCCNc1ncnc2c1ncn2Cc1nnc2c3ccccc3c(Cl)nn12	False
COc1cccc(-c2cc(-c3ccc(Nc4nc(Nc5ccc(Cl)cc5)nc(Nc5ccc(Cl)cc5)n4)cc3)nc(N)c2C#N)c1	True
COc1ccc(C2=NN(C=O)C(c3ccc(Oc4nc5c(c(=O)n(C)c(=O)n5C)n4C)c(OC)c3)C2)cc1 (configuration not stated)	False
C=C1/C(=C\C=C2/CCC[C@]3(C)[C@@H]([C@H](C)CCCC(C)(C)O)CC[C@@H]23)C[C@@H](OC(=O)CBr)C[C@@H]1O	True
CCN1CCN(C(=O)[C@]23CC[C@@H](C)[C@H](C)[C@@H]2C2=CC[C@@H]4[C@@]5(C)C/C(=C/c6ccncc6)C(=O)C(C)(C)[C@@H]5CC[C@@]4(C)[C@]2(C)CC3)CC1	True
CCCC[N+]1(C)CCN=C1Cc1ccccc1 (configuration not stated)	False
O=C(Nc1ncc(Cc2ccccc2)s1)c1cc(-c2ccccc2)nc2ccccc12	False

###

# System: SR leukemia
# Protocol text: NCI-60 one-dose screen, 48 h
# Test parameters: 10 µM unless noted
Compounds without any hit were thinned out: in the full panel of roughly 83,000, 20% have a hit. Activity calls are given as the source filed them. Rule for the calls: active = growth percent below 10; inactive = the rest.
Outcomes: active, inactive

Molecule	Answer label
COC(=O)[C@H](C)NC(=O)c1ccc(NC(=O)c2[nH]c(C)c(Cl)c2Cl)c(OCCN)c1	inactive
C=C(CNCCO)[C@@H]1CC[C@]2(CO)CC[C@]3(C)[C@H](CC[C@@H]4[C@@]5(C)CCC(NCCO)C(C)(C)[C@@H]5CC[C@]43C)[C@@H]12 (stereo not given in full)	active
COC(=O)[C@@H](Cc1c[nH]c2ccccc12)NC[C@@H](O)CN1C(=O)/C(=C\c2cc(OC)c(OC)c(OC)c2)c2ccccc21	inactive
Cc1ccc(OCCOCCOCCOCCOc2ccc(C)n(O)c2=S)c(=S)n1O	active
Cn1ccnc1C(=O)/C=C/c1ccc(C(=O)Nc2c(F)c(F)c(F)c(F)c2F)cc1	active
